Biological target: Ret V804M (Homo sapiens (Human), UniProt P07949, V804M)
Sequence (P07949 29-1114 V804M): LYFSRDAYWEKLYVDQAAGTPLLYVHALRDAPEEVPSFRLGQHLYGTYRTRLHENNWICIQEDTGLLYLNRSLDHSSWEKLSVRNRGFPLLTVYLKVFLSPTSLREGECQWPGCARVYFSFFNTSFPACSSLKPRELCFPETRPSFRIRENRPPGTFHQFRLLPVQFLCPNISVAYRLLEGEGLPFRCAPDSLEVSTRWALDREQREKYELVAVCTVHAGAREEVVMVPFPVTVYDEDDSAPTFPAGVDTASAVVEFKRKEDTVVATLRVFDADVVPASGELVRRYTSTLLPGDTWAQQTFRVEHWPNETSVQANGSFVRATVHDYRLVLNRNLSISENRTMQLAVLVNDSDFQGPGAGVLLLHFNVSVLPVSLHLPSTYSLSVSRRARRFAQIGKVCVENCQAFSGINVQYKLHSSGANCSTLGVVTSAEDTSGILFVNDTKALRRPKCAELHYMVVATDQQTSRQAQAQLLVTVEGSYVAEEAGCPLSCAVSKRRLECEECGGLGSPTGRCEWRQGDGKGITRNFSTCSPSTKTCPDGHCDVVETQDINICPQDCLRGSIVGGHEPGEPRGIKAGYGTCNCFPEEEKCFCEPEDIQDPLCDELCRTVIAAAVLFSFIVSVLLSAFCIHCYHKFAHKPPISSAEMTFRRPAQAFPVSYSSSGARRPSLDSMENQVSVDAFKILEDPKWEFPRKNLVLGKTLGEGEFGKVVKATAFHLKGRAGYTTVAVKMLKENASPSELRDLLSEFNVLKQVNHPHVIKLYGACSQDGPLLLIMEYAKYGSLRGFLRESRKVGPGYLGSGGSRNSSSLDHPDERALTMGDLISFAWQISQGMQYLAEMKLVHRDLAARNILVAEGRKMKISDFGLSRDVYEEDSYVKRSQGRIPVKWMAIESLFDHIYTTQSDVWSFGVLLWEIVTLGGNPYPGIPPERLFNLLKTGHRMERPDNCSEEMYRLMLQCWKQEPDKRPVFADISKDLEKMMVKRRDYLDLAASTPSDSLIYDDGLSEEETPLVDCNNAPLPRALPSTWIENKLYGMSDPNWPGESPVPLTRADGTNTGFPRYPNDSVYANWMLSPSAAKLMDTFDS
Assay: HTRF kinase inhibition assay, Ret V804M
Format: biochemical
Details: HTRF method
property-name: IC50 (nM)
Reply with just the number (in nM).

Item `C#Cc1ccc(CN2CCN(c3ccc(-c4cc(-c5cnn(C)c5)cn5ncc(C#N)c45)cn3)CC2)nc1` has what recorded IC50?
2.22

Item `COc1cncc(C#CCN2CCN(c3ccc(-c4cc(-c5cnn(C)c5)cn5ncc(C#N)c45)cn3)CC2)c1` has what recorded IC50?
18.3

Item `C#Cc1ccc(C(=O)N2CCN(c3ccc(-c4cc(-c5cnn(C)c5)cn5ncc(C#N)c45)cn3)CC2)nc1` has what recorded IC50?
2.06

Item `COc1ccnc(C#CCN2CCN(c3ccc(-c4cc(-c5cnn(C)c5)cn5ncc(C#N)c45)cn3)CC2)c1` has what recorded IC50?
3.21

Item `C#Cc1ccc(OC2CN(c3ccc(-c4cc(-c5cnn(C6CC6)c5)cn5ncc(C#N)c45)cn3)C2)cn1` has what recorded IC50?
0.92

Item `C#Cc1cccc(CN2CCN(c3ccc(-c4cc(-c5cnn(C)c5)cn5ncc(C#N)c45)cn3)CC2)c1F` has what recorded IC50?
21

Item `Cn1cc(-c2cc(-c3ccc(N4CC5CC(C4)N5CC#Cc4cccnc4)nc3)c3c(C#N)cnn3c2)cn1` has what recorded IC50?
1.77

Item `C#Cc1ccc(O[C@@H]2CCN(c3ccc(-c4cc(-c5cnn(C(F)F)c5)cn5ncc(C#N)c45)cn3)C2)cc1` has what recorded IC50?
0.85

Item `C#Cc1cccc(CN2C3CC2CN(c2ccc(-c4cc(-c5cnn(C)c5)cn5ncc(C#N)c45)cn2)C3)n1` has what recorded IC50?
12.4

Item `Cn1cc(-c2cc(-c3ccc(N4CCN(CC#Cc5ccncc5)CC4)nc3)c3c(C#N)cnn3c2)cn1` has what recorded IC50?
31.4

Item `Cn1cc(-c2cc(-c3ccc(N4CC5CC(C4)N5CC#Cc4ccccc4)nc3)c3c(C#N)cnn3c2)cn1` has what recorded IC50?
0.88

Item `Cn1cc(-c2cc(-c3ccc(N4CC5CC(C4)N5C(=O)C#Cc4cccnc4)nc3)c3c(C#N)cnn3c2)cn1` has what recorded IC50?
82.6

Item `C#Cc1cc(F)c(C(=O)N2C3CC2CN(c2ccc(-c4cc(-c5cnn(C)c5)cn5ncc(C#N)c45)cn2)C3)c(F)c1` has what recorded IC50?
10

Item `COc1cncc(C#CC(=O)N2CCN(c3ccc(-c4cc(-c5cnn(C)c5)cn5ncc(C#N)c45)cn3)CC2)c1` has what recorded IC50?
5.26

Item `COc1cncc(C#CCN2C3CC2CN(c2ccc(-c4cc(-c5cnn(C)c5)cn5ncc(C#N)c45)cn2)C3)c1` has what recorded IC50?
0.42

Item `C#CC(=O)N1CCN(c2ccc(-c3cc(-c4cnn(C)c4)cn4ncc(C#N)c34)cn2)CC1` has what recorded IC50?
8.2

Item `Cn1cc(-c2cc(-c3ccc(N4CCN(CC#Cc5cccnc5)CC4)nc3)c3c(C#N)cnn3c2)cn1` has what recorded IC50?
5.76

Item `C#Cc1cccc(C(=O)NC2(C)CCN(c3ccc(-c4cc(-c5cnn(C)c5)cn5ncc(C#N)c45)cn3)CC2)c1` has what recorded IC50?
2.3

Item `Cn1cc(-c2cc(-c3ccc(N4CCN(CC#Cc5ccccn5)CC4)nc3)c3c(C#N)cnn3c2)cn1` has what recorded IC50?
1.94

Item `C#Cc1ccc(OC2CN(c3ccc(-c4cc(-c5cnn(C(F)F)c5)cn5ncc(C#N)c45)cn3)C2)cn1` has what recorded IC50?
2.29

Item `Cn1cc(-c2cc(-c3ccc(N4CCN(CC#Cc5ccccc5)CC4)nc3)c3c(C#N)cnn3c2)cn1` has what recorded IC50?
5.47

Item `Cn1cc(-c2cc(-c3ccc(N4CCN(CC#Cc5ccc(C(F)(F)F)cc5)CC4)nc3)c3c(C#N)cnn3c2)cn1` has what recorded IC50?
198

Item `Cn1cc(-c2cc(-c3ccc(N4CC5CC(C4)N5C(=O)C#Cc4ccccc4)nc3)c3c(C#N)cnn3c2)cn1` has what recorded IC50?
74.1

Item `C#Cc1ccc(C(=O)N2C3CC2CN(c2ccc(-c4cc(-c5cnn(C)c5)cn5ncc(C#N)c45)cn2)C3)cc1F` has what recorded IC50?
1.79

Item `C#Cc1ccc(O[C@H]2CCN(c3ccc(-c4cc(-c5cnn(C(F)F)c5)cn5ncc(C#N)c45)cn3)C2)cn1` has what recorded IC50?
23

Item `C#Cc1cc(C(=O)N2CCN(c3ccc(-c4cc(-c5cnn(C)c5)cn5ncc(C#N)c45)cn3)CC2)ccc1F` has what recorded IC50?
12.3

Item `C#CC(=O)N1C2CC1CN(c1ccc(-c3cc(-c4cnn(C)c4)cn4ncc(C#N)c34)cn1)C2` has what recorded IC50?
44.3

Item `Cn1cc(-c2cc(-c3ccc(N4CC5CC(C4)N5CC#Cc4ncccc4F)nc3)c3c(C#N)cnn3c2)cn1` has what recorded IC50?
0.21
